Molecular target: Broad substrate specificity ATP-binding cassette transporter ABCG2 (Homo sapiens, UniProt Q9UNQ0)
Sequence (Q9UNQ0 whole entry): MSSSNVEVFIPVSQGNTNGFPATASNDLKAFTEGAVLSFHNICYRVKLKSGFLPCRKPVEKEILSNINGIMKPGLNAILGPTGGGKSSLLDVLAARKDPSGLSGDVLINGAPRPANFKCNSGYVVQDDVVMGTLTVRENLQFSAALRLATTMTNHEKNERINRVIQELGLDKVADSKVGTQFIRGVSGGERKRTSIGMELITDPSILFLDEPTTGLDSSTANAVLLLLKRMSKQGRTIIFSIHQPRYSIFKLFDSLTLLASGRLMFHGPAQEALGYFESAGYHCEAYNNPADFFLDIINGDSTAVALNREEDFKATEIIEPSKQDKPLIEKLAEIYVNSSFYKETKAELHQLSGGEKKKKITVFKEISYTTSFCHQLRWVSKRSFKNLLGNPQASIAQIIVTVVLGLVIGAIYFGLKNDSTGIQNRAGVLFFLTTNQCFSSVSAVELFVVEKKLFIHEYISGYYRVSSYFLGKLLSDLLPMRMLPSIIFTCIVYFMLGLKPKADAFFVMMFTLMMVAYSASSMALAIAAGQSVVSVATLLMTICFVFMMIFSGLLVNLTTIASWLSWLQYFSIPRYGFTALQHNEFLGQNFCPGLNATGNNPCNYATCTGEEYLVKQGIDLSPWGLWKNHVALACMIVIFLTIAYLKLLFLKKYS
Assay: Inhibition of BCRP expressed in mitoxantrone-resistant human HCT116 cells assessed as increase in mitoxantrone accumulation at 10 uM after 15 mins
Type: cell-based
Settings: hct-116, 0.25 h
Exercise: state measured Fluorescence intensity for each of the molecules provided.
Answers are plain numbers, in a.u..

| molecule | data value |
| --- | --- |
| CCN1CCN(C(=O)c2cc(=O)c3c(O)cccc3o2)CC1 | 108 |
| O=C(NCCc1ccccc1)c1cc(=O)c2c(O)cccc2o1 | 282 |
| COc1ccc(CCNC(=O)c2cc(=O)c3c(O)cccc3o2)cc1 | 320 |
| O=C(c1cc(=O)c2c(O)cccc2o1)N1CCN(CCO)CC1 | 72 |
| CCCCN1CCN(C(=O)c2cc(=O)c3c(O)cccc3o2)CC1 | 223 |

Kindly give each listed record's Fluorescence intensity.
1. O=C(c1cc(=O)c2c(O)cccc2o1)N1CCNCC1
2. CC(=O)N1CCN(C(=O)c2cc(=O)c3c(O)cccc3o2)CC1
3. CC(C)(C)OC(=O)N1CCN(C(=O)c2cc(=O)c3c(O)cccc3o2)CC1
4. Cc1ccc(NC(=O)c2ccc(CN3CCN(C)CC3)cc2)cc1Nc1nccc(-c2cccnc2)n1 [IMATINIB]
5. COc1ccc(CNC(=O)c2cc(=O)c3c(O)cccc3o2)cc1OC
6. CCCCCN1CCN(C(=O)c2cc(=O)c3c(O)cccc3o2)CC1

Given back:
1. 86
2. 112
3. 179
4. 334
5. 197
6. 225

---

Molecular target: Broad substrate specificity ATP-binding cassette transporter ABCG2 (Homo sapiens, UniProt Q9UNQ0)
Test: Inhibition of BCRP expressed in mitoxantrone-resistant human HCT116 cells assessed as increase in mitoxantrone accumulation at 10 uM after 15 mins
Assay type: cell-based
Details: hct-116, 0.25 h
Exercise: state measured Fluorescence intensity for each of the compounds provided.

| line notation | data value |
| --- | --- |
| COc1ccc(CCNC(=O)c2cc(=O)c3c(O)cccc3o2)cc1OC | 315 a.u. |
| CC(C)CN1CCN(C(=O)c2cc(=O)c3c(O)cccc3o2)CC1 | 92 a.u. |

Kindly give each listed record's Fluorescence intensity.
1. COc1ccc2c3c([nH]c2c1)[C@H](C=C(C)C)N1C(=O)[C@@H]2CCCN2C(=O)[C@@H]1C3
2. O=C(c1cc(=O)c2c(O)cccc2o1)N1CCN(CC2CCCCC2)CC1
3. CCCN1CCN(C(=O)c2cc(=O)c3c(O)cccc3o2)CC1

Given back:
315 a.u.
92 a.u.
104 a.u.
